# Tested on: HSP-70 induction in PC-3 cells (biomarker for HSP-90 inhibition)
# assayProcedure: HSP-70 in-cell ELISA assay
# Format: cell-based
# assayContext: Homo sapiens; PD marker (ELISA), PC-3 cells, 24 h
pEC50: −log10 of the molar value.
recordedEndpoint: pEC50

Query pEC50 on HSP-70 induction in PC-3 cells (biomarker for HSP-90 inhibition) for Cc1cnc(Cl)nc1-c1ccc(N(Cc2ccc(CNC(=O)C(F)F)cc2)C(=O)c2ccc(O)cc2O)cc1 [VER-246608]
< 4.10

* * *

# targetOfAssay: UniProt:Q15118
# assayContext: read-out: In vitro functional (E1/E2), IC50, PDK-1; E1/E2 as the substrate
recordedEndpoint: IC50 (nM)
Give bare numbers, in nM.

Item C[C@@H]1CN(C(=O)[C@](C)(O)C(F)(F)F)[C@@H](C)CN1C(=O)c1ccc(C#N)cc1 [Nov3r, reference compound] has what recorded IC50?
3

* * *

# targetOfAssay: PDK-1 (Homo sapiens, UniProt Q15118)
# Sequence (Q15118 30-436): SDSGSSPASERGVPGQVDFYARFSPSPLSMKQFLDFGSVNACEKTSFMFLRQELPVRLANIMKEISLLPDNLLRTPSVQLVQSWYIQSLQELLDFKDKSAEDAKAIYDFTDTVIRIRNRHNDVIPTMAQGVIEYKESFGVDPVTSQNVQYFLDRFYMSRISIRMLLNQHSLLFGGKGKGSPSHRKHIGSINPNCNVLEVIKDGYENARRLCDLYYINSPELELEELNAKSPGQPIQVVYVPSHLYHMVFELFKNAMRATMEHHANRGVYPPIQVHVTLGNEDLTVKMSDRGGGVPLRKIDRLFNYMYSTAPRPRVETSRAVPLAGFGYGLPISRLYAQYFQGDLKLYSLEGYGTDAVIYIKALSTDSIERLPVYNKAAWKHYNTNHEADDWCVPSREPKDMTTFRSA
# assayProcedure: PDK-1 fluorescence polarization assay (fluorescein-labelled ATP site probe)
# Type: binding
# Parameters: PDK-1: residues 30-436; made in house; host or cells: E. coli BL21
# assayContext: fluorescence polarization; mean of n determinations; read-out: PDK-1 FP, IC50
recordedEndpoint: IC50 (nM)
Give bare numbers, in nM.

Request body: readout IC50, system PDK-1 (Homo sapiens, UniProt Q15118), query C[C@@H]1CN(C(=O)[C@](C)(O)C(F)(F)F)[C@@H](C)CN1C(=O)c1ccc(C#N)cc1 [Nov3r, reference compound] . Return the value.
83
